- target: T1, His-tagged human IL-1 Rrp2/IL-1R6 protein (human, UniProt Q9HB29 20-335, limits assumed)
- T1 construct: Bought protein; also called His-tagged human IL-1 Rrp2/IL-IR6 protein; not shown: His tag
- T1 sequence (looked up): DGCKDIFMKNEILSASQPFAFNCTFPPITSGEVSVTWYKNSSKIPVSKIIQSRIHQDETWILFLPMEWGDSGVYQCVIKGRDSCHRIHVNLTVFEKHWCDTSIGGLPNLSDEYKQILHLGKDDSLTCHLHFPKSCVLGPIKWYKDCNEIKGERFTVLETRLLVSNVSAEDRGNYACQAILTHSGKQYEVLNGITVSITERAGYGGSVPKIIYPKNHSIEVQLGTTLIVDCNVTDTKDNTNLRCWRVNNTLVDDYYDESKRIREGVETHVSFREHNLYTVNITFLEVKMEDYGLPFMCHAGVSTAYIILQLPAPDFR
- protocol.description: SPR Biacore 8K, His-tagged antigen captured by anti-His antibody, antibody as analyte, 1:1 model
Reported kon by item:
Give just the number in M⁻¹ s⁻¹; leave the unit off.

The cases that follow already have their kon on record.
>>> quantitative_readout("humanized anti-IL-36R antibody 900513 (antibody, V domains shown, IgG1 (vector with L234A, L235A) and human kappa) VH: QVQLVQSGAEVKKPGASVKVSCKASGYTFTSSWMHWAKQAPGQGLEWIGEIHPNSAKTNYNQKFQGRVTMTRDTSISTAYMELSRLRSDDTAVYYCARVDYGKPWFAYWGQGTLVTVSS VL: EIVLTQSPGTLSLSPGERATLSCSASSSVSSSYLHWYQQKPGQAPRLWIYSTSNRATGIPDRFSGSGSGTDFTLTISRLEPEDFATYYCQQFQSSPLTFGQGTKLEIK")
904000
>>> quantitative_readout("anti-IL-36R chimeric antibody 900497 (antibody, V domains shown, Human-mouse chimera: human IgG1 heavy constant region with L234A and L235A (Eu numbering), human kappa light constant region) VH: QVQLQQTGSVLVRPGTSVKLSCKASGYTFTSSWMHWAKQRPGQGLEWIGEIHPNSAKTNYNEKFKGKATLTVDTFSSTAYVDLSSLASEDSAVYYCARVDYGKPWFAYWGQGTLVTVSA VL: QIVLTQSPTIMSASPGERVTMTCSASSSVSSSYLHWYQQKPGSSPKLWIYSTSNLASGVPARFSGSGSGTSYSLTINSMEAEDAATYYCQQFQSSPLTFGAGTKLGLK")
660000
>>> quantitative_readout("humanized anti-IL-36R antibody 900534 (antibody, V domains shown, IgG1 (vector with L234A, L235A) and human kappa) VH: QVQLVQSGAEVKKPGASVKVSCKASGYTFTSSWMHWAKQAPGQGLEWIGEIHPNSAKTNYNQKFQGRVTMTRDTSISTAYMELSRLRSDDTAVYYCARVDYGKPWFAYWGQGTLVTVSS VL: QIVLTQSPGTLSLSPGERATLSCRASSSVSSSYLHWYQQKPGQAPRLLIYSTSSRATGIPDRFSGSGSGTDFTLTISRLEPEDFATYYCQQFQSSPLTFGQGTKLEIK")
881000

[in] Given the entry humanized anti-IL-36R antibody 900527 (antibody, V domains shown, IgG1 (vector with L234A, L235A) and human kappa) VH: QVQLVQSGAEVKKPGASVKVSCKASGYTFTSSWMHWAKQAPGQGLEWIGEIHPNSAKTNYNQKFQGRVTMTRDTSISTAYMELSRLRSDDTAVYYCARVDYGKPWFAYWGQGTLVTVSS VL: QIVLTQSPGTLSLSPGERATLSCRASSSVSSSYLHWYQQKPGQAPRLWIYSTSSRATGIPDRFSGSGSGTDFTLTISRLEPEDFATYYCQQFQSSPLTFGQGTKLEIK , report its measured kon.
[out] 967000
